assay: Solubility in PGME and PGMEA at 23° C.; assay type: physicochemical; conditions: 1-methoxy-2-propanol (PGME)
Value type: solubility in PGME

Example entries and their recorded answers appear below.
> print(dat)
                               smiles.entry    result.value
1  COc1cc(C2c3c(ccc4cc(O)ccc34)Oc3ccc4cc(O)ccc4c32)cc(I)c1O  ≥ 20 % by mass
2  Oc1ccc2ccc3c(c2c1)C(c1ccc(I)cc1)c1c(ccc2ccc(O)cc12)O3  ≥ 20 % by mass
3  Oc1ccc2c3c(ccc2c1)Oc1ccc2cc(O)ccc2c1C3c1ccc(I)o1  ≥ 20 % by mass
4  COc1cc(C2c3c(ccc4ccc(O)cc34)Oc3ccc4ccc(O)cc4c32)cc(I)c1O  ≥ 20 % by mass
5  Oc1ccc2ccc3c(c2c1)C(c1ccc(I)o1)c1c(ccc2ccc(O)cc12)O3  ≥ 20 % by mass

Pending compound:
# input Field request: solubility in PGME | item: Oc1ccc2c3c(ccc2c1)Oc1ccc2cc(O)ccc2c1C3c1ccc(I)cc1
# output ≥ 20 % by mass
